Test system: CAKI-1 renal
Test: NCI tumour cell line growth inhibition, 48 h; in the data active = GI50 below about 0.43 µM; inactive = the rest
In this exercise, the only acceptable responses are active, inactive

Would you please look over these solved cases?
# compound, assigned_category
rows = [
    ("O=C(Nc1cccc(-n2ccc3c(NC(=O)c4ccccc4)nccc32)c1)c1ccc(Cl)c(Cl)c1", "active"),
    ("Oc1ccccc1/C=N\\Nc1ccccc1", "inactive"),
    ("O=C1/C=C/[C@@H](O)[C@@H]2C[C@@H](O)C[C@H]2/C=C/CCC[C@H](CCc2ccc(NC(=S)Nc3ccc4c(c3)C(=O)OC43c4ccc(O)cc4Oc4cc(O)ccc43)cc2)O1", "inactive"),
    ("Cc1cc2oc(=O)cc(OC/C=C3/CCC(=O)O3)c2cc1C", "inactive"),
    ("C=C1C(=O)O[C@H]2[C@H]1CC/C(CNC(=O)C(C)c1ccc(CC(C)C)cc1)=C\\CC[C@@]1(C)O[C@@H]21 (some centres undefined)", "inactive"),
    ("O=c1oc2ccc(I)cc2c(=O)n1-c1ccc(I)cc1F", "active"),
    ("O=C(CCN1CCCC1)Nc1ccc2c(Nc3ccc(Br)cc3)c3ccccc3nc2c1", "inactive"),
    ("O=C1c2c(c3c4ccccc4n(CCCCCCN4CCOCC4)c3c3[nH]c4ccccc4c23)C(=O)N1O", "inactive"),
]

Next:
What classification did Fc1ccc(-c2c(-c3ccncc3)[nH]c3cccnc23)cc1 end up with in this test?
inactive
